# study_target: T1, human CEA on cells (MKN45, LOVO, NCI-H2122, LS174T, CT26/CEA) (human, UniProt P06731 35-685)
# T1 sequence: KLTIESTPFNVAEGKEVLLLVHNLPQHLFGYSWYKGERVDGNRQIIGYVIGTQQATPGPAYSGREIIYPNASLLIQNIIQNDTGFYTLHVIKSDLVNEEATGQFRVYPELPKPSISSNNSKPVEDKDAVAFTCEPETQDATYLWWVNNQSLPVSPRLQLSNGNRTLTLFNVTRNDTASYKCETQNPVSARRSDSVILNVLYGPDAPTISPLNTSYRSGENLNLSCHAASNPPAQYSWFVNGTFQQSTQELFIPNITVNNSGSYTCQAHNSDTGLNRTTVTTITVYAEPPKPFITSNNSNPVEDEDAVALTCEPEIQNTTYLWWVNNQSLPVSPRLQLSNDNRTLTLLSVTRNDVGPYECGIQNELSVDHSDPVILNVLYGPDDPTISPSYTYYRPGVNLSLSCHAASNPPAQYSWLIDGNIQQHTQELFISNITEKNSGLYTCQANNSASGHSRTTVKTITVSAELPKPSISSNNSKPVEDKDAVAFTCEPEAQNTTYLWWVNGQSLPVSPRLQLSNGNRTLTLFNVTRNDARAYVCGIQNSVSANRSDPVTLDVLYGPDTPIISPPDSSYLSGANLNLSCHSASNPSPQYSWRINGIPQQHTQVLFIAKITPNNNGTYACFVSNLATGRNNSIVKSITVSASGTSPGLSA
# assay: cell-based or functional assay
Each entry below lists one item and its recorded Emax, cell killing of NCI-H2122 cells value.
measured_property: Emax, cell killing of NCI-H2122 cells

>>> result("BGA8357 (antibody, human IgG1, kappa, V domains shown, linker-payload conjugated after reduction of the antibody, DAR 8 profile (structure only as a drawing in Table 18)) VH: QVQLVQSGAEVKKPGASVKVSCKASGYIFTSYYLHWVRQAPGQGLEWIGYINPQTGKTSYAQKFQGRVTMTRDTSTSTVYMELSSLRSEDTAVYYCAREYGNYNYPLDYWGQGTLVTVSS VL: DIQMTQSPSSLSASVGDRVTITCRASENQYGYLAWYQQKPGKVPKLLIYNYKNLVEGVPSRFSGSGSGTDFTLTISSLQPEDVATYYCQHHLGTPYTFGQGTKVEIKR")
83.9
>>> result("BGA0084 (antibody, human IgG1, kappa, V domains shown, linker-payload conjugated after reduction of the antibody, DAR 8 profile (structure only as a drawing in Table 18)) VH: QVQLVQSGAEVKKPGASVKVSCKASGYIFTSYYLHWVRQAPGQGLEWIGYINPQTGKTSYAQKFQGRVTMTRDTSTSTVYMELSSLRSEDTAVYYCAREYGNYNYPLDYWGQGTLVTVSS VL: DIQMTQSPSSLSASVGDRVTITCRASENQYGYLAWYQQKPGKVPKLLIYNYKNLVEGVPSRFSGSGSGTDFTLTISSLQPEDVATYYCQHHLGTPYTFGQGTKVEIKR")
83.8
>>> result("BGA9962 (antibody, human IgG1, kappa, V domains shown, linker-payload conjugated after reduction of the antibody, DAR 8 (structure only as a drawing in Table 18)) VH: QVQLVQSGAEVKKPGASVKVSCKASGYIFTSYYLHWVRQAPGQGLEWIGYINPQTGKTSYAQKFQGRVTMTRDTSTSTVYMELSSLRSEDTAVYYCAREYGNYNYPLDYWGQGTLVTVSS VL: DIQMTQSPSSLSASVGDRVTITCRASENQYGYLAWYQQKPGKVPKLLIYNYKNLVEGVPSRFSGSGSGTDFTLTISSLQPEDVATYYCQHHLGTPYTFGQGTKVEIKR")
80
